Assay: A qHTS for Small Molecule Inhibitors of Shiga Toxin; also: 0% is about no effect
Details: Vero cells, Shiga toxin protein synthesis inhibition reporter; at 38.7 µM
The campaign covered roughly 290,000 compounds. About 27,000 (9.3%) were called active. Rule as the data show it: active = inhibition mostly above about 28% (no sharp cut-off); inactive = mostly below about 43%. Many of the other results were omitted from the sample, so actives are more common in it than they were.
Just give me one of these, please: y for active, n for inactive

Worked set:
INSERT INTO assay_data (molecule, category_label) VALUES
  ('Cc1ccc(OC(=O)c2c(C)nn(-c3ccccc3)c2C)cc1', 'y'),
  ('Cc1cc(C(=O)COC(=O)c2cccs2)c(C)n1-c1c(C)n(C)n(-c2ccccc2)c1=O', 'n'),
  ('CC(=O)Nc1ccc(NC(=O)[C@@H](NC(=O)c2cccc(C)c2)C(C)C)cc1', 'n'),
  ('COc1cccc(/C=C2\Sc3ccc(C(=O)NCC4CCCO4)cc3N(C)C2=O)c1 (stereo not given)', 'n');

INPUT: Call for entry `COc1ccc(CNc2c(CO)cnc3c2cnn3C)cc1` :
OUTPUT: n

====

Assay: A qHTS for Small Molecule Inhibitors of Shiga Toxin; also: 0% is about no effect
Settings: Vero cells, Shiga toxin protein synthesis inhibition reporter; at 38.7 µM, hits give high values
The campaign covered roughly 290,000 compounds. About 27,000 (9.3%) were called active. For the sample, actives were picked, then their nearest neighbours and some compounds at random.
measurement-name: inhibition

Examples with answers:
INSERT INTO measurements (molecule, result) VALUES
  ('COc1ccccc1CCNC(=O)c1cnccn1', '10.7% (inactive)'),
  ('Cc1cccc(-n2c(O)c(C=Nc3ccccc3N)c(=O)[nH]c2=O)c1', '57% (active)'),
  ('Cc1nn(Cc2ccccc2Cl)c(Cl)c1C(=O)OC(C(=O)NC(N)=O)C(C)C (stereo unspecified)', '8.84% (inactive)');

INPUT: Please report the recorded inhibition for `Cc1cccc(-n2c(O)c(C=NC34CN5CN(CN(C5)C3)C4)c(=O)[nH]c2=O)c1` .
OUTPUT: 19.9% (inactive)

INPUT: Please report the recorded inhibition for `CC(=O)NS(=O)(=O)c1ccc(N/C(N)=N/c2nc(C)cc(C)n2)cc1` .
OUTPUT: 4.41% (inactive)

INPUT: Please report the recorded inhibition for O=C(NCc1ccncc1)C1CCCN(S(=O)(=O)c2ccc(Br)cc2)C1 (stereo unspecified) .
OUTPUT: -9.96% (inactive)

====

Assay: A qHTS for Small Molecule Inhibitors of Shiga Toxin; also: 0% is about no effect
Settings: Vero cells, Shiga toxin protein synthesis inhibition reporter; at 38.7 µM, hits give high values
Out of some 290,000 compounds screened, about 27,000 (9.3%) were called active. Many of the other results were omitted from the sample, so actives are more common in it than they were.
Response key: Condition met means inhibition >= 10%; Condition not met means inhibition < 10%.

Worked set:
INSERT INTO results (compound, category_label) VALUES
  ('Cc1c(N=Nc2ccc(N(C)C)cc2)c(=O)n(-c2ccccc2)n1C', 'Condition met'),
  ('Cc1nc2sc(C(=O)c3ccccc3)c(N)c2c2c1CCCC2', 'Condition met'),
  ('COc1cccc(C(=O)c2sc3nc(-c4ccccc4)cc(C(F)(F)F)c3c2N)c1', 'Condition not met'),
  ('CCOc1ccc(-n2c(SCC(=O)Nc3ccc(OC)cc3)nc3sc4c(c3c2=O)CCN(C)C4)cc1', 'Condition not met'),
  ('Cc1nc(N)sc1N=Nc1c(C)n(C)n(-c2ccccc2)c1=O', 'Condition not met'),
  ('O=C(CC1NCCc2ccccc21)Nc1cccc(Cl)c1 (configuration not stated)', 'Condition met'),
  ('O=C(CC1NCCNC1=O)Nc1cc(Cl)cc(Cl)c1 (configuration not stated)', 'Condition not met'),
  ('CCc1nc2sc(C(=O)O)c(N)c2c2c1CCCC2', 'Condition not met'),
  ('CC(=O)c1c(Nc2ccccc2)sc(C(=O)c2ccccc2)c1C', 'Condition not met'),
  ('Cc1ccc2c(N)c(C(=O)c3ccccc3)sc2n1', 'Condition met');

Consider the additional compound presented here.
INPUT: Evaluate `COc1cc(CNc2ncn[nH]2)ccc1OCc1ccccc1C` : inhibition at minimum 10%?
OUTPUT: Condition met
